Target: T1, human ACVR2A (human, UniProt P27037 20-135, limits assumed); further: test concentration or dose not given here
T1 construct: coated antigen of the initial ELISA; also called activin receptor, type II A
T1 sequence (P27037 20-135 limits assumed): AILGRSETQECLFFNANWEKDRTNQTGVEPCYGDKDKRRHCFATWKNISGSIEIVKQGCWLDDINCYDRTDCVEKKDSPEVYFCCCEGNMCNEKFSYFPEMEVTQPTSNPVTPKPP
Assay: ELISA
measurement.name: optical density (OD)
# unit: OD | format: bare number

1. 367_D03 (antibody, V domains shown, Group III) VH: EVQLLESGGGLVQPGGSLRLSCAASGFTFDSYSMNWVRQAPGKGLEWVSSINYNGGYTGYADSVKGRFTISRDNSKNTLYLQMNSLRAEDTAVYYCARGANWHDTHLDYWGQGTLVTVSS VL: DIQMTQSPSSLSASVGDRVTITCRASQSIITYLNWYQQKPGKAPKLLIYAATSRASGVPSRFSGSGSGTDFTLTISSLQPEDFATYYCQQSYDTPLTFGGGTKVEIK: 2.59
2. 375_A12 (antibody, V domains shown, Group III) VH: EVQLLESGGGLVQPGGSLRLSCAASGFTFSSYSMNWVRQAPGKGLEWVSGINYNSGYKSYADSVKGRFTISRDNSKNTLYLQMNSLRAEDTAVYYCARGANWHDTALDYWGQGTLVTVSS VL: DIQMTQSPSSLSASVGDRVTITCRASQSILSYLNWYQQKPGKAPKLVIYAVTSRASGVPSRFSGSGSGTDFTLTISSLQPEDFATYYCQQSYETPLTFGGGTKVEIK: 3.66
3. 369_E06 (antibody, V domains shown, Group III) VH: EVQLLESGGGLVQPGGSLRLSCAASGFTFSSYGMNWVRQAPGKGLEWVSGINYNGGYTSYADSVKGRFTISRDNSKNTLYLQMNSLRAEDTAVYYCARGANWHDTALDYWGQGTLVTVSS VL: DIQMTQSPSSLSASVGDRVTITCRASQSIISYLNWYQQKPGKAPKLVIYAATSRHSGVPSRFSGSGSGTDFTLTISSLQPEDFATYYCQQSYDSPLTFGGGTKVEIK: 3.13

Lookup result for 369_D03 (antibody, V domains shown, Group III) VH: EVQLLESGGGLVQPGGSLRLSCAASGFTFSSYSMNWVRQAPGKGLEWVSGINYNGGYTSYADSVKGRFTISRDNSKNTLYLQMNSLRAEDTAVYYCARGANWHDTHLDYWGQGTLVTVSS VL: DIQMTQSPSSLSASVGDRVTITCRASQSILTYLNWYQQKPGKAPKLVIYAATSRASGVPSRFSGSGSGTDFTLTISSLQPEDFATYYCQQSYENPLTFGGGTKVEIK ; measured optical density: 3.28

Lookup result for 370_B12 (antibody, V domains shown, Group III) VH: EVQLLESGGGLVQPGGSLRLSCAASGFTFSDYSMNWVRQAPGKGLEWVSGINYNGGYKGYADSVKGRFTISRDNSKNTLYLQMNSLRAEDTAVYYCARGANWHDTALDYWGQGTLVTVSS VL: DIQMTQSPSSLSASVGDRVTITCRASQSILSYVNWYQQKPGKAPKLVIYATTSRASGVPSRFSGSGSGTDFTLTISSLQPEDFATYYCQQSYETPLTFGGGTKVEIK ; measured optical density: 2.92
